Hey, just so you know, these numbers are from ChEMBL document CHEMBL1201862.

Exercise: state measured EC50 for each of the compounds provided.
assay: NIH-3T3 fibroblast cytotoxicity, dose response, cytotoxicity control, cell-based, fluorescence, Alamar Blue, secondary assay (AID 2327); format: functional;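 further: NIH-3T3 mouse fibroblasts cultured with fluconazole at 8 µg/mL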
Activity calls are given as the source filed them.

// known answers, use as guide
>>> result("Cc1nnc(N/N=C/c2ccccn2)nc1O")
"4.26 µM (active)"
>>> result("Cc1nonc1C(=O)N/N=C/c1ccc([N+](=O)[O-])o1")
"30.2 µM (active)"
>>> result("COc1cccc(C2CC(c3ccc(NS(C)(=O)=O)cc3)=NN2C(=O)c2ccccc2)c1OC (stereo not given)")
"> 150 µM (inactive)"

I need EC50 for every entry listed below, if you could help.
1. Cc1ccc(C(=O)NC(=S)NNC(=O)c2ccccc2[N+](=O)[O-])cc1
2. Cc1cc(Cl)n2c(nc3ccccc32)c1C#N

output:
1: 18.8 µM (inconclusive); 2: 6.06 µM (inconclusive)

----------
target: UniProt P07900; type: functional, organism-based
Calls of active or inactive are those of the source.
Parameter Measured: AC50

// known answers, use as guide
>>> result("Cc1cccc(NC(=O)c2nc(S(=O)(=O)Cc3ccccc3)ncc2Cl)c1")
"2.42 µM (active)"
>>> result("Cn1c(/C=C/c2ccc([N+](=O)[O-])o2)nc2ccccc2c1=O")
"5 µM (active)"
>>> result("Cc1ccc(O)c(-c2cc(-c3cccc(F)c3)[nH]n2)c1")
"25.4 µM (active)"
>>> result("O=C1C=CC2(O[C@H](c3ccccc3)[C@@H](c3ccccc3)O2)[C@H](Sc2ccccc2O)C1")
"4.16 µM (active)"
>>> result("C/C(=N\\Nc1ncnc2sc(C)c(C)c12)c1ccccn1")
"2.42 µM (active)"

I need AC50 for every entry listed below, if you could help.
1. CCCCCCCCCCCCCCCC[n+]1ccccc1
2. COC[C@H]1OC(=O)c2coc3c2[C@@]1(C)C1=C(C3=O)[C@@H]2CCC(=O)[C@@]2(C)C[C@H]1OC(C)=O

output:
4.22 µM (active)
0.363 µM (active)

----------
molecular target: UniProt:P35372; format: functional, cell-based
Sequence (P35372 whole entry): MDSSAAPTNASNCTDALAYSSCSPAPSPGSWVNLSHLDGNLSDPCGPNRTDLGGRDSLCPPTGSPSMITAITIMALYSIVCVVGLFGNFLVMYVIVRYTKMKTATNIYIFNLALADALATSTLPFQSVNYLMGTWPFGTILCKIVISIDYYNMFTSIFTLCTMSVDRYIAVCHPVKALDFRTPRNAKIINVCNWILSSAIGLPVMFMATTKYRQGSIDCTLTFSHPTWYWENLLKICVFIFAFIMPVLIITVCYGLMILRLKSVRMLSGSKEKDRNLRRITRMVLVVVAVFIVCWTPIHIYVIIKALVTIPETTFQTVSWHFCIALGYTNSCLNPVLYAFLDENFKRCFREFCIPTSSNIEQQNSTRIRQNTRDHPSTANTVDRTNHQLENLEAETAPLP
Calls of active or inactive are those of the source.
Parameter Measured: EC50

// known answers, use as guide
>>> result("Cc1cc(C)c(O)c(-c2[nH]nc3c2C(c2cccc(O)c2)N(Cc2ccco2)C3=O)c1 (centres undefined)")
"92.5 µM (inactive)"
>>> result("CCC(c1nnnn1-c1c(C)cccc1C)N1CCN(C/C=C/c2ccccc2)CC1 (centres undefined)")
"92.6 µM (inactive)"
>>> result("CC(C)N1CCOC(c2ccc(O)c(O)c2)C1 (centres undefined)")
"92.3 µM (inactive)"

input: Supply measured EC50 of CC(=O)N1CCc2cc(C(=O)CN3CCN(c4ccccn4)CC3)ccc21 in your reply.
output: 92.5 µM (inactive)

----------
Exercise: state measured IC50 for each of the compounds provided.
target: Induced myeloid leukemia cell differentiation protein Mcl-1 (Homo sapiens, UniProt Q07820); format: functional
Sequence (Q07820 whole entry): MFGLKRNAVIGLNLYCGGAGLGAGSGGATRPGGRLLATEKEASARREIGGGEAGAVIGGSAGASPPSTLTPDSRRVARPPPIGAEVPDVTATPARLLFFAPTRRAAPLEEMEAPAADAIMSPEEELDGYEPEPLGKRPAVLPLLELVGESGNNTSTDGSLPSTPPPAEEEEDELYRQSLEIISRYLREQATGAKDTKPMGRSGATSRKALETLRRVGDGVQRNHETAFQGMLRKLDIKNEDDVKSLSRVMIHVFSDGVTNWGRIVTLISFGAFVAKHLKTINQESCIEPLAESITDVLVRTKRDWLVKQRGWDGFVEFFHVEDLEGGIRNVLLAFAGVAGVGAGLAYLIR
Activity calls are given as the source filed them.

>>> result("N#C/C(=C(/O)c1ccc(-c2cccc([N+](=O)[O-])c2)o1)c1nc2ccccc2s1")
"5.38 µM (active)"

I need IC50 for every entry listed below, if you could help.
1. Cc1nnc(Sc2cc(NCCCO)c([N+](=O)[O-])c3nonc23)s1
2. Nc1cc2c(cc1[N+](=O)[O-])OCO2
3. O=C(N/N=C/c1ccc(-c2ccc(S(=O)(=O)Nc3ncccn3)cc2)o1)c1cc2ccccc2cc1O
4. CCC(C)(C)n1nnnc1C(c1ccc(O)c(OC)c1)N1CCc2ccccc2C1 (stereo unspecified)
5. O=C1C(=Cc2ccc(Br)o2)C(=O)c2ccccc21

output:
["3.11 µM (active)", "5.21 µM (active)", "1.63 µM (active)", "6.3 µM (active)", "1.92 µM (active)"]

----------
Exercise: state measured EC50 for each of the molecules provided.
molecular target: Luciferin 4-monooxygenase (Photinus pyralis); experiment: inhibition of purified Photinus pyralis luciferase – biochemical, luminescence, dose response (AID 1891)
Sequence (P08659 whole entry): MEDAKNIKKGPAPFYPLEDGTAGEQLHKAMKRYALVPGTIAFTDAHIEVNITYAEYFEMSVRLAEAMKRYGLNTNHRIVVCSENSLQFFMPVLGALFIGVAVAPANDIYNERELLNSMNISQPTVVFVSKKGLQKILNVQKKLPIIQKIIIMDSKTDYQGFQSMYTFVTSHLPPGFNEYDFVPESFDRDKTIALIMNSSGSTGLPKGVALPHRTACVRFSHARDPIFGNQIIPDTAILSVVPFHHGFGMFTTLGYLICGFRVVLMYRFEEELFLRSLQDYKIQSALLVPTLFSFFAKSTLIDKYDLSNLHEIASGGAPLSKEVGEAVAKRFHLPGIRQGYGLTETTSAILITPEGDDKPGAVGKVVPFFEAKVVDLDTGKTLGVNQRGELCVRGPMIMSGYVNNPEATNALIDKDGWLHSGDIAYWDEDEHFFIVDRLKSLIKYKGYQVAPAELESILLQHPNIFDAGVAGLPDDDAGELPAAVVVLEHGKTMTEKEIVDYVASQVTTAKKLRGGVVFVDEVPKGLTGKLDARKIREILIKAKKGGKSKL
Activity calls are given as the source filed them.

>>> result("CCN=C(S)NNC(=O)c1cc(-c2ccc(OC)cc2)nc2ccccc12")
"0.107 µM (active)"

I need EC50 for every entry listed below, if you could help.
1. CCOc1ccccc1CNS(=O)(=O)c1c[nH]cn1
2. Cc1cc([N+](=O)[O-])ccc1NC(=O)CSc1nncn1-c1cccnc1
3. O=C(N1CCOCC1)N1CCN(S(=O)(=O)N2CCOCC2)CC1
4. O=C1Cc2ccccc2Sc2ccc(Cl)cc21
5. Oc1ccc(N=Nc2ccc3ccccc3c2)cc1

output:
["> 112 µM (not active)", "> 112 µM (not active)", "> 112 µM (not active)", "> 112 µM (not active)", "0.712 µM (active)"]

----------
biological target: Ubiquitin-conjugating enzyme E2 N (Homo sapiens, UniProt P61088); assay type: functional;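 further: Dose-response confirmation in a TR-FRET assay detecting UBC13-driven polyubiquitin chain formation, inhibition measured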
Sequence (P61088 whole entry): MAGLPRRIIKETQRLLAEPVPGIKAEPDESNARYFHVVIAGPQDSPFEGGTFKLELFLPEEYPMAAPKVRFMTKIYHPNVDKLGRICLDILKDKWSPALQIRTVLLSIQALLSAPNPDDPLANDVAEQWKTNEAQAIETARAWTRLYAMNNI
The source made the active and inactive calls.
Outcome field: choose from active, inactive

>>> classification("C#CCOCCOCCOCCNc1nc(N2CCN(C(=O)CCCCCCCCCCNC(=O)[C@H](CCCCN)n3cc(C)nn3)CC2)nc(N2CCN(C(=O)CCCCCCCCCCNC(=O)[C@H](CO)n3cc(CCCSC)nn3)CC2)n1")
"active"
>>> classification("Cc1ccc2c(c1)C1CN(C)CCC1N2C(=O)/C(C#N)=C/c1ccc2c(c1)OCO2 (centres undefined)")
"inactive"
>>> classification("O=C(CSc1nc2ccsc2c(=O)n1Cc1ccc(C(=O)O)cc1)NCC1CCCO1 (centres undefined)")
"active"

input: Record lookup: outcome of this test for Cc1sc2nc(C(C)Nc3ccccc3N3CCOCC3)[nH]c(=O)c2c1C (centres undefined) ?
output: active

input: Record lookup: outcome of this test for COc1ccc(CN(C)C(=O)Cc2ccc(OC)c(S(=O)(=O)N3CCOCC3)c2)cc1OC ?
output: active

input: Record lookup: outcome of this test for C=C1c2c(Cl)ccc(O)c2C(=O)C2=C(O)[C@]3(O)C(=O)C(C(N)=O)=C(O)[C@@H](N(C)C)[C@@H]3[C@@H](O)[C@H]12.O=C(O)c1cc(S(=O)(=O)O)ccc1O [MECLOCYCLINE SULFOSALICYLATE] ?
output: inactive

----------
biological target: RNA-binding protein pos-1 (Caenorhabditis elegans); assay: disruptors of C. elegans POS-1 RNA interaction – biochemical, fluorescence polarization, dose response (AID 1964);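 further: purified POS-1 fused to maltose binding protein made in E. coli; potency of compounds blocking POS-1 binding to fluorescent RNA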
Sequence (G5EF15 whole entry, the tested form may be a part): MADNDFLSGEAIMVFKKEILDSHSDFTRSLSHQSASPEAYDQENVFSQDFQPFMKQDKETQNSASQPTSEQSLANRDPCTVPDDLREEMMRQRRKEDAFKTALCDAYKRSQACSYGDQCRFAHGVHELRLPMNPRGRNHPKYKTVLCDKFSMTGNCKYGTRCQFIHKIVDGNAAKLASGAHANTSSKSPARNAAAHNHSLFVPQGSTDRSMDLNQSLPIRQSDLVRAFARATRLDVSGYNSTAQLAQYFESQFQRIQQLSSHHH
Activity calls are given as the source filed them.
Parameter Measured: EC50

// known answers, use as guide
>>> result("Cc1cc(C(=O)N/N=C/c2ccc(-c3cccc(Cl)c3Cl)o2)[nH]n1")
"28.3 µM (active)"
>>> result("O=C1NC(=O)N(c2ccccc2F)C(=O)/C1=C/c1cn(CC(=O)N2CCOCC2)c2ccccc12")
"> 300 µM (not active)"
>>> result("COc1ccc(/N=C(\\C)c2sc3ccccc3c2O)cc1")
"> 300 µM (not active)"
>>> result("C/C(=N\\Nc1ncnc2sc(C)c(C)c12)c1ccccn1")
"23.3 µM (inconclusive)"
>>> result("Oc1ccc(/C=N/N2CCCCC2)c(O)c1O")
"20.3 µM (active)"
>>> result("CCOc1ccc(Br)cc1S(=O)(=O)NC(=O)c1ccccc1")
"> 300 µM (not active)"

I need EC50 for every entry listed below, if you could help.
1. COc1cc([N+](=O)[O-])cc(/C=N/NC(=O)CC#N)c1O
2. CS(=O)(=O)Nc1nc2n(n1)C(c1ccccc1)C=C(c1ccc(Br)cc1)N2 (stereo not drawn)
3. CC1(O)C(=O)C=C2C=C(C3CC3)OC=C2C1=O (stereo not drawn)
4. N#Cc1c(N)nc(SCc2ccncc2)c(C#N)c1-c1cccs1
5. COc1cc(/C=C2/N=C(c3ccccc3)OC2=O)c(F)cc1OCc1ccccc1
6. COC(=O)[C@@]1(C#N)[C@@H]2C=CC(C(C)=O)=CN2[C@@H](C(N)=O)[C@@H]1c1ccc(F)cc1
7. COc1ccc(/C=C/c2cc(C(F)(F)F)nc(O)n2)cc1OC

output:
["> 300 µM (inconclusive)", "> 300 µM (not active)", "41.3 µM (active)", "> 300 µM (not active)", "> 300 µM (not active)", "4.6 µM (active)", "> 300 µM (not active)"]

----------
Exercise: state measured AC50 for each of the molecules provided.
Protein target, amino acids: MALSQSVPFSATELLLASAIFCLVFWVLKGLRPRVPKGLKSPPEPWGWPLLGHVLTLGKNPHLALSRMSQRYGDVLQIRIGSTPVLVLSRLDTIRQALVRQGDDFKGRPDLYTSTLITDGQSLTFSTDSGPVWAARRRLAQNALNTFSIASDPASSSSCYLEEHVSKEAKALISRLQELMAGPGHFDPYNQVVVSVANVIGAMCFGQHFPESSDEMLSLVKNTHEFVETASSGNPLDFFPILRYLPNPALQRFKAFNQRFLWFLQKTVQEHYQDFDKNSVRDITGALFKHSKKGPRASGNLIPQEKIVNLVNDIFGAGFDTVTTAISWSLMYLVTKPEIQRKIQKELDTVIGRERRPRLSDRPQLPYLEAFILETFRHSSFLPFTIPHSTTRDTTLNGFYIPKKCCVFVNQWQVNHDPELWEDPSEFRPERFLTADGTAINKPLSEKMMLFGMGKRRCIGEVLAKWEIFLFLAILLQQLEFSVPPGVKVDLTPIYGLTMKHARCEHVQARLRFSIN

// known answers, use as guide
>>> result("COc1cccc(-c2cncnc2NCCN2CCOCC2)c1")
"15.8 µM (inconclusive)"
>>> result("Cn1cnc([N+](=O)[O-])c1Sc1nc(N)nc2c1ncn2Cc1ccccc1")
"3.16 µM (inconclusive)"
>>> result("NNS(=O)(=O)c1cc(C(=O)O)cc(C(=O)O)c1")
"0.001 µM (inconclusive)"
>>> result("CCN(CC)c1ccc(N2C(=O)/C(=C\\c3cccnc3)SC2=S)cc1")
"1.41 µM (inconclusive)"
>>> result("CCCCC1(C)NC(=O)c2c(C)sc(C(=O)OCC)c2N1 (stereo unspecified)")
"14.1 µM (inconclusive)"

input: Supply measured AC50 of Cc1onc(C(=O)/C=C/N(C)C)c1C(=O)Nc1nccs1 in your reply.
output: 0.631 µM (inconclusive)
